These entries and their values trace back to patent US10227331B2.

In this section we review reported IC50 values for a set of compounds.
studySystem: VIM-1 (Pseudomonas aeruginosa (strain ATCC 15692 / DSM 22644 / CIP 104116 / JCM 14847 / LMG 12228 / 1C / PRS 101 / PAO1), UniProt A0A0F7KYQ8)
experiment: biochemical
conditionLabel: CCF2-FA substrate, 2 hours at 25° C
Express your answer in nM, writing the number without its unit.

Measured IC50, Cc1n[nH]c2ccc(-c3ccc(S(=O)(=O)C4CNC4)c(S(N)(=O)=O)c3-c3nnn[nH]3)cc12.O=C(O)C(F)(F)F [Example 126, 2,2,2-trifluoroacetate] : 0.477

Measured IC50, Cc1nc(N)ccc1-c1ccc(S(=O)(=O)CCN)c(S(N)(=O)=O)c1-c1nnn[nH]1.O=C(O)C(F)(F)F [Example 170, 2,2,2-trifluoroacetate] : 1.01

Measured IC50, `Nc1nc2c(-c3ccc(S(=O)(=O)C4CNC4)c(S(N)(=O)=O)c3-c3nn[nH]n3)cccc2[nH]1` : 0.258

----------
studySystem: VIM-1 (Pseudomonas aeruginosa (strain ATCC 15692 / DSM 22644 / CIP 104116 / JCM 14847 / LMG 12228 / 1C / PRS 101 / PAO1), UniProt A0A0F7KYQ8)
experiment: biochemical
conditionLabel: CCF2-FA substrate, 2 hours at 25° C
Lab note - cut at 0.4 nM for IC50: Satisfied if strictly below, Not satisfied if not.

Use the examples below as a reference point.
NC1CCC(c2ccc(S(=O)(=O)C3CCNCC3)c(S(N)(=O)=O)c2-c2nnn[nH]2)CC1 (stereo not shown) [Example 206] ... Not satisfied
Nc1nccc(-c2ccc(S(=O)(=O)C3CNC3)c(S(N)(=O)=O)c2-c2nn[nH]n2)c1N [Example 224] ... Not satisfied
C[C@@H](N)CS(=O)(=O)c1ccc(-c2cccc3[nH]c(N)nc23)c(-c2nn[nH]n2)c1S(N)(=O)=O [Example 267] ... Not satisfied

Dear colleague, could you confirm whether IC50 of Nc1nc2c(-c3ccc(S(=O)(=O)C4CN(CCO)C4)c(S(N)(=O)=O)c3-c3nn[nH]n3)cccc2[nH]1 [Example 53] falls below 0.4 nM? Thanks.
Not satisfied

Dear colleague, could you confirm whether IC50 of NS(=O)(=O)c1c(S(=O)(=O)C2CNC2)ccc(-c2cnc3ccccn23)c1-c1nn[nH]n1 [Example 9] falls below 0.4 nM? Thanks.
Satisfied

Dear colleague, could you confirm whether IC50 of Nc1nc2cc(-c3ccc(S(=O)(=O)C4CNC4)c(S(N)(=O)=O)c3-c3nn[nH]n3)ccn2n1 [Example 217] falls below 0.4 nM? Thanks.
Satisfied

Dear colleague, could you confirm whether IC50 of N#Cc1ccc(-c2ccc(S(=O)(=O)CCN)c(S(N)(=O)=O)c2-c2nnn[nH]2)c2[nH]c(N)nc12 [Example 295] falls below 0.4 nM? Thanks.
Satisfied

----------
System: P. aeruginosa expressing IMP-1, efflux+ (MB9798)
Type: cell-based, Pseudomonas aeruginosa
conditionLabel: ratio MITC95 PA_9798/MITC95 PA_9799
Lab note - cut at 4 for Efflux ratio: Met if strictly below, Not met if not.

Use the examples below as a reference point.
C[C@@H](N)CS(=O)(=O)c1ccc(-c2cccc3c2nc(N)n3C)c(-c2nn[nH]n2)c1S(N)(=O)=O ... Met
N#Cc1ccc(-c2ccc(S(=O)(=O)CCN)c(S(N)(=O)=O)c2-c2nnn[nH]2)c2[nH]c(N)nc12 ... Met

Dear colleague, could you confirm whether Efflux ratio of `NCCS(=O)(=O)c1ccc(-c2cccc(NC(=O)CN)c2)c(-c2nn[nH]n2)c1S(N)(=O)=O` falls below 4? Thanks.
Not met

Dear colleague, could you confirm whether Efflux ratio of `NS(=O)(=O)c1c(SC2CCNCC2)ccc(-c2ccc(C3CCNCC3)cc2)c1-c1nnn[nH]1` falls below 4? Thanks.
Not met

Dear colleague, could you confirm whether Efflux ratio of `CS(=O)(=O)N1CC(S(=O)(=O)c2ccc(-c3cccc4[nH]c(N)nc34)c(-c3nn[nH]n3)c2S(N)(=O)=O)C1` falls below 4? Thanks.
Not met

Dear colleague, could you confirm whether Efflux ratio of `NC(=O)CN1CC(S(=O)(=O)c2ccc(-c3cccc4[nH]c(N)nc34)c(-c3nn[nH]n3)c2S(N)(=O)=O)C1` falls below 4? Thanks.
Met

Dear colleague, could you confirm whether Efflux ratio of `NS(=O)(=O)c1c(S(=O)(=O)C2CNC2)ccc(-c2csc(N3CCOCC3)n2)c1-c1nnn[nH]1.O=C(O)C(F)(F)F` falls below 4? Thanks.
Not met

Dear colleague, could you confirm whether Efflux ratio of `NS(=O)(=O)c1c(S(=O)(=O)C2CNC2)ccc(-c2cccc3cn[nH]c23)c1-c1nnn[nH]1` falls below 4? Thanks.
Met

Dear colleague, could you confirm whether Efflux ratio of `CC(C)(N)CS(=O)(=O)c1ccc(-c2cccc3sc(N)nc23)c(-c2nn[nH]n2)c1S(N)(=O)=O` falls below 4? Thanks.
Met

Dear colleague, could you confirm whether Efflux ratio of `NS(=O)(=O)c1c(S(=O)(=O)C2CNC2)ccc(-c2cccc3cccnc23)c1-c1nnn[nH]1.O=C(O)C(F)(F)F` falls below 4? Thanks.
Met

Dear colleague, could you confirm whether Efflux ratio of `NS(=O)(=O)c1c(SC2CNC2)ccc(-c2cnc3ccccn23)c1-c1nn[nH]n1` falls below 4? Thanks.
Not met

Dear colleague, could you confirm whether Efflux ratio of `NS(=O)(=O)c1c(S(=O)(=O)C2CNC2)ccc(-c2ccc3ccncc3c2)c1-c1nnn[nH]1.O=C(O)C(F)(F)F` falls below 4? Thanks.
Not met
